Measured values drawn from patent US6897298B2 for this set.

Assay: Acute toxicity test
Settings: in vivo; Mouse, intravenous injection; 95% confidence margin 346.01˜366.64 mg/kg
reported_metric: LD50 (mg/kg)
Your answer is read as mg/kg, so omit the unit and give the number.

I am curious: what LD50 value has been reported for CC(C)=CCC[C@](C)(OCC1OC(CO)C(O)C(O)C1O)C1CC[C@]2(C)C1[C@H](O)CC1[C@@]3(C)CC[C@H](OC4OC(CO)C(O)C(O)C4OC4OC(CO)C(O)C(O)C4O)C(C)(C)C3CC[C@]12C (stereo partly shown) [Compound (I)] ? 356
